Tested on: NCI-H460
assay notes: NCI tumour cell line growth inhibition, 48 h
Active and inactive are the calls of the source. No stated cut-off is given here; in the data, active = GI50 up to about 1.1 µM and inactive = higher.
Entry note: the call must match one of TRUE for active, FALSE for inactive

Examples with answers:
molecule | class name
O=P(NCCCO)(OCc1ccccc1)N(CCCl)CCCl (stereo not drawn) | FALSE
COc1ccc2c(c1)C1C(CO2)C(c2ccccc2)=NN1c1ccccc1 (stereo not drawn) | FALSE
NC(=O)c1cccc([N+](=O)[O-])c1 | FALSE
CCCCCCCCCC1CC(=O)OC23CCCC(=O)C12O3 (stereo not drawn) | FALSE
C/C=C/[C@H]1O[C@@](O)([C@@H](C)[C@H](O)[C@H](C)[C@H]2OC(=O)/C(OC)=C/C(C)=C/[C@@H](C)[C@@H](O)[C@@H](CC)[C@@H](O)[C@H](C)C/C(C)=C/C=C/[C@@H]2OC)C[C@H](OC2CC(O)C(OC(N)=O)C(C)O2)[C@@H]1C (stereo partly drawn) | TRUE
Nn1c(Nc2ccc(S(=O)(=O)Nc3ncccn3)cc2)nnc(/C=C/c2c(O)ccc3ccccc23)c1=O | FALSE
O=c1c2cccnc2[nH]c2ccc3[nH]ncc3c12 | FALSE
O=C1[C@H]2ON(c3ccccc3)C(c3ccc([N+](=O)[O-])cc3)[C@H]2C(=O)N1c1ccc(Cc2ccc(N3C(=O)[C@@H]4ON(c5ccccc5)C(c5ccc([N+](=O)[O-])cc5)[C@@H]4C3=O)cc2)cc1 (stereo partly drawn) | FALSE

Look up the recorded call for COC1C(O)C(C)OC(OC2C(Oc3cccc4c(O)c5c(=O)oc6ccc(C)c7c(=O)oc(c34)c5c67)OC(C)C(O)C2O)C1O (stereo not drawn) in this test.
FALSE

// next record C/C1=N\[N-]C(=O)c2ccccc2C(=O)N/N=C(\C)c2cccc1n2.O=[N+]([O-])[O-].[Zn+2]
FALSE

// next record O=C1C=C(Nc2ccc(S(=O)(=O)Nc3ncccn3)cc2)c2ccccc2C1=O
FALSE

// next record CC(NC(=O)OC(C)(C)C)C(=O)C(N)=O (stereo not drawn)
FALSE

// next record CCN(CC)CCNc1ccc2nnn3c4ccc(C)cc4c(=O)c1c23
FALSE

// next record O=C1C=CC=C/C1=C1\N=C(c2ccccc2OCC(=O)c2ccc(Br)cc2)SS1
FALSE

---

System: NCI-H226
assay notes: NCI tumour cell line growth inhibition, 48 h
The source made the active and inactive calls. Cut-off read from the data, not from the text of the source: active = GI50 up to about 1.1 µM and inactive = higher.
Entry note: the call must match one of T = active, F = inactive

Examples with answers:
molecule | class name
COc1ccc([S+]([O-])Cc2cc(OC)ccc2OC)cc1 (stereo unspecified) | F
CCN(CC)CCNc1ccc2nnn3c4ccc(C)cc4c(=O)c1c23 | F
C=CC[C@]1(C2=NC(C)(C)CO2)c2ccccc2-c2ccccc2[C@H]1C(C)=O | F
O=C(O)c1c2c(cc3c1CC1(Cc4ccccc4C1)C3)CCC2 | F
Cn1c(=O)c2sc3cc4c(cc3c2c2ccccc21)sc1c(=O)n(C)c2ccccc2c14 | F
COc1ccc(/C=C/C(=O)Oc2ccc(/C=C3\CCCCC3=O)cc2)cc1 | F
CC1=CCN(c2ccccn2)OC1c1ccccc1 (stereo unspecified) | F
CCOc1cc(NC(C)=O)ccc1C(=O)NN1C(=O)C(Cl)C1c1ccccc1 (stereo unspecified) | F
NNC(=O)c1c(Cl)c(Cl)c(Cl)c(Cl)c1-c1nc2ccccc2[nH]1 | F
C=CC(=O)N1C/C(=C\c2ccc(F)cc2)C(=O)/C(=C/c2ccc(F)cc2)C1 | T

Look up the recorded call for COCC1N=C(c2cc(OC)c(OC)c(OC)c2-c2cc3c(cc2[C@H](C)O)OCO3)O[C@H]1c1ccccc1 (stereo partly specified) in this test.
F

---

Tested on: SK-MEL-2
assay notes: NCI tumour cell line growth inhibition, 48 h
Activity calls are given as the source filed them. Rule as the data show it: active = GI50 up to about 1.1 µM and inactive = higher.
Entry note: the call must match one of active, inactive

Examples with answers:
molecule | class name
C=CC(=O)N1C/C(=C\c2ccc(F)cc2)C(=O)/C(=C/c2ccc(F)cc2)C1 | active
C[C@]12C=CC(=O)C=C1CC[C@@H]1[C@@H]2CC[C@@]2(C)[C@H]1CC[C@]2(O)C(N)=O | inactive
NC(=O)N/N=C/C(/C=N/NC(N)=O)[N+](=O)[O-] | inactive
CN(CCNC(=O)c1cn(C)c2c1ccc1cc(Cl)ccc12)CCNC(=O)c1cn(C)c2c1ccc1cc(Cl)ccc12 | inactive
C[N+]1(CC[N+]2(C)CCCC2c2cccnc2)CCCC1c1cccnc1 (centres undefined) | inactive
CN(C)CCN1C(=O)c2cccc3cc([N+](=O)[O-])cc(c23)C1=O [MITONAFIDE] | inactive
COc1cc(C2c3[nH]c4ccccc4c3C[C@H]3COC(=O)N23)cc(OC)c1OC (some centres undefined) | active
Cc1cc2c(cc1Cl)SC(NNC(=O)c1ccccc1)=NS2(=O)=O | inactive

Could you now look at the following molecule, please?
Look up the recorded call for COc1ccc(NC2CC(C)N(C(=O)c3ccccc3)O2)cc1 (centres undefined) in this test.
inactive

---

Test system: SK-MEL-2
assay notes: NCI tumour cell line growth inhibition, 48 h
Activity calls are given as the source filed them. Rule as the data show it: active = GI50 up to about 1.1 µM and inactive = higher.
Entry note: the call must match one of yes for active, no for inactive

Examples with answers:
compound | class name
Cc1ccc(/N=N/C(=NNC(=O)c2ccc(C)cc2)c2ccc(N(C)C)cc2)cc1 | no
CCCCCCCCCCCCCCCCCCOCC(O)CO (stereo not given) | no
C[N+](C)(N)Cc1nc(-c2ccc(Cl)cc2)no1 | no
CCCc1nc(Cl)nc(Cl)c1Cl | yes

Look up the recorded call for Nc1nc[n+](Cc2ccccc2)c2ncn(Cc3ccccc3)c12 in this test.
no

---

Tested on: NCI-H460
assay notes: NCI tumour cell line growth inhibition, 48 h
The source made the active and inactive calls. No stated cut-off is given here; in the data, active = GI50 up to about 1.1 µM and inactive = higher.
Entry note: the call must match one of YES for active, NO for inactive

molecule | class name
CC(C)(C)c1cc(COc2cc(COc3ccc(-c4c5c(nc6c4CCc4ccc(-c7c8ccccc8nc8ccccc78)cc4-6)-c4cc(-c6c7ccccc7nc7ccccc67)ccc4CC5)cc3)cc(OCc3cc(C(C)(C)C)cc(C(C)(C)C)c3)c2)cc(C(C)(C)C)c1 | NO

Look up the recorded call for O=C(CCC(C(=O)OCc1ccccc1)C(=O)OCc1ccccc1)Nc1ccc(OCc2ccccc2)cc1 in this test.
NO

// next record CC(NC(=O)C(CC(=O)OCc1ccccc1)NC(=O)OCc1ccccc1)c1ccccc1 (centres undefined)
NO

// next record CCOC(=O)C(Cc1cccn1C(=O)OC(C)(C)C)[N+](=O)[O-] (centres undefined)
NO

// next record COc1cc2c(cc1OC)C(O)[C@H](Br)C(C)(C)O2 (some centres undefined)
NO

// next record C[N+](C)(N)Cc1nc(-c2ccc(Cl)cc2)no1
NO

---

System: NCI-H460
assay notes: NCI tumour cell line growth inhibition, 48 h
The source made the active and inactive calls. No stated cut-off is given here; in the data, active = GI50 up to about 1.1 µM and inactive = higher.
Entry note: the call must match one of active, inactive

molecule | class name
CC(C)C(/C=C/c1ccccc1)=N\NC(=S)NN | inactive

Look up the recorded call for CCN(CC)P(=O)(c1ccc2c(c1)OCCOCCOCCOCCO2)N(CC)CC in this test.
inactive

// next record COc1cc(C2c3[nH]c4ccccc4c3C[C@H]3COC(=O)N23)cc(OC)c1OC (stereo partly drawn)
active
